Please go through the items and note down their mortality at 200 ppm.
# Tested on: Sweetpotato Whitefly-crawler (WF) (Bemisia tabaci) (BEMITA)
# EXPERIMENTAL PROTOCOL: Insecticidal test for Sweetpotato Whitefly-crawler (WF) in foliar spray assay on cotton plants
# Assay type: in vivo
# APPLIED CONDITIONS: 216 h, 200 ppm foliar spray, cotton plants, graded after 9 days, Abbott corrected % control, read-out: % Control (or Mortality) rating, WF

Form field: reported mortality at 200 ppm of CCN(C(=O)CCS(=O)(=O)CCC(F)(F)F)c1sc(-c2ccc[n+]([O-])c2)nc1Cl
80 to 100%

# query: mortality at 200 ppm of entry CCN(C(=O)CCS(C)(=O)=O)c1sc(-c2ccc[n+]([O-])c2)nc1Cl
80 to 100%

Given the entry Cc1nc(-c2cc(F)c[n+]([O-])c2)sc1N(C)C(=O)CC[S+](C)[O-] (stereo not drawn) , report its measured mortality at 200 ppm.
80 to 100%

mortality at 200 ppm for CCN(C(=O)CC[S+](C)[O-])c1sc(-c2ccc[n+]([O-])c2)nc1Cl (stereo not drawn) ?
80 to 100%

Fill blank: measured mortality at 200 ppm of the molecule CS(=O)(=O)CCC(=O)Nc1sc(-c2ccc[n+]([O-])c2)nc1Cl is ____.
0 to 80%

Sample CCN(C(=O)CC[S+]([O-])CCC(F)(F)F)c1sc(-c2ccc[n+]([O-])c2)nc1Cl (stereo not drawn) [Compound P2] — what was its mortality at 200 ppm?
80 to 100%

What value of mortality at 200 ppm has been recorded for this entry: CCN(C(=O)C(C)C[S+](C)[O-])c1sc(-c2ccc[n+]([O-])c2)nc1Cl (stereo not drawn)
80 to 100%

Fill blank: measured mortality at 200 ppm of the molecule Cc1nc(-c2cc(F)c[n+]([O-])c2)sc1N(C)C(=O)CCS(C)(=O)=O is ____.
80 to 100%

Data request, read-out mortality at 200 ppm, for CCN(C(=O)CCSCCC(F)(F)F)c1sc(-c2ccc[n+]([O-])c2)nc1Cl [Compound P1]
80 to 100%

Given CSCCC(=O)N(C)c1sc(-c2cc(F)c[n+]([O-])c2)nc1C , state its recorded mortality at 200 ppm.
80 to 100%

What mortality at 200 ppm value was documented for this molecule, CSCCC(=O)Nc1sc(-c2cccnc2)nc1Cl ?
0 to 80%

So what's the measured mortality at 200 ppm for this one? CC(CS(C)(=O)=O)C(=O)N(C)c1sc(-c2ccc[n+]([O-])c2)nc1Cl (stereo not drawn)
0 to 80%

Entry under review: CCN(C(=O)C(C)CS(C)(=O)=O)c1sc(-c2ccc[n+]([O-])c2)nc1Cl (stereo not drawn) . Reported mortality at 200 ppm?
80 to 100%

Quick one: mortality at 200 ppm for CCN(C(=O)CCSC)c1sc(-c2ccc[n+]([O-])c2)nc1Cl ?
80 to 100%

Would you kindly share the measured mortality at 200 ppm for CCN(C(=O)C(C)CSC)c1sc(-c2ccc[n+]([O-])c2)nc1Cl (stereo not drawn) ?
80 to 100%

Origin of values: patent US9445597B2
